# assay target: T1, CEACAM1 antigen (Sino Biological, Inc.) (UniProt P13688 35-428)
# T1 construct: Bought antigen, coated on the ELISA plate; construct not described; also called CEACAM1 (CD66a) antigen; CD66a
# T1 sequence (looked up): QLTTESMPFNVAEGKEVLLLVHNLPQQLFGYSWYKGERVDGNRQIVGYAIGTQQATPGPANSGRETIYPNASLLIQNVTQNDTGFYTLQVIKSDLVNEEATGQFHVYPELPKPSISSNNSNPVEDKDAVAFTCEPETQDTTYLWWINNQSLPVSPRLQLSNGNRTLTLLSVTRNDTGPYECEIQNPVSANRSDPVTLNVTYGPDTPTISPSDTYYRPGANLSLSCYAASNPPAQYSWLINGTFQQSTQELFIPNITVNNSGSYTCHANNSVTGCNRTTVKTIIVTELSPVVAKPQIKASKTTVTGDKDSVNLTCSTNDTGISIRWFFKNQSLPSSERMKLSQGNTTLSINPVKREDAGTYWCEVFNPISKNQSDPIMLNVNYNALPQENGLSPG
# protocol summary: ELISA, CEACAM1 coated 100 ng/well, antibody at 41.15 ng/ml
assay metric: OD 450 nm (OD 450 nm)
Give the value in OD 450 nm but do not write OD 450 nm after it.

For the binder recombinant humanized anti-CD66c antibody Protein ID 2938 (Vk5 + VH7) (antibody, human IgG1, V domains shown, also called hu 2938) VH: QVQLVQSGAEVKKPGASMKISCKASGYSFTDYTMNWVRQAPGQGLEWIGLINPFHGGTVSNQRFKVKATLTVDVSTNTAYMELSRLRSDDTAVYYCVRGDPVRHYYALAYWGQGTLVTVSS VL: DIQMTQSPSTLSASVGDRVTITCGASENVYGTLAWYQRKPGKAPKLLIYGATNLADGVPSRFSGSGSGREYTLTISSLQPDDFATYYCQNVLSAPYTFGGGTKLEIK , what OD 450 nm is on record?
0.07
